# Tested on: HCT-15 colon
# test_method_notes: NCI tumour cell line growth inhibition, 48 h
result_type: TGI

Record excerpt, results attached:
>>> val("O=C1Nc2ccc(Cl)cc2C(=O)N2CCC[C@@H]12")
"> 100 µM"
>>> val("CCN(Cc1ccccc1F)c1ccc(CO)c(Cl)c1")
"47.2 µM"
>>> val("CC(C)=CCC/C(C)=C/CCC(C(=O)COCc1ccccc1)P1(=O)OC(C)(C)CN1C(C)(C)C (stereo not given)")
"> 100 µM"
>>> val("Cc1nc(N)nc(N)c1CCCCc1ccccc1")
"63.3 µM"
>>> val("OCc1cn(Cc2ccc(Cl)cc2)c2ccccc12")
"28.5 µM"

*Q* Fill in the blank: the reported TGI of `c1ccc2nc3c(cc2c1)Sc1cc2ccccc2[n+]2c1N3CC2` is ____.
*A* > 100 µM

*Q* Need TGI, item `COc1ccc2nc3cc(Cl)ccc3c(Nc3ccc(O)c(CN4CCN(C)CC4)c3)c2c1`
*A* 5.68 µM

*Q* Give the measured TGI of `COc1cc2cc(c1Cl)N(C)C(=O)C[C@H](OC(=O)[C@H](C)N(C)C(=O)CCS)C[C@]1(C)O[C@H]1[C@H](C)[C@@H]1C[C@@](O)(NC(=O)O1)[C@H](OC)/C=C/C=C(\C)C2` .
*A* > 50 µM

*Q* Give its TGI value. Item: `Cc1cc(C)c2ccc(N3CCNCC3)nc2n1`
*A* > 100 µM

*Q* Entry under review: O=C(c1ccccc1)C(c1ccccc1)C1(O)C(=O)Nc2c(Cl)ccc(Cl)c21 (stereo not given) . Reported TGI?
*A* 36.2 µM

* * *

# Test system: SK-MEL-2 melanoma
The reply should name one outcome from 1.0 = active, 0.0 = inactive

>>> label("COc1cc(/C=C2\\CN(S(=O)(=O)c3ccc(C)cc3)C/C(=C\\c3cc(CN4CCOCC4)c(O)c(OC)c3)C2=O)cc(CN2CCOCC2)c1O")
0.0
>>> label("CCCCCCCCCCCCCCCCSC(=NCC)NCC")
0.0
>>> label("COc1cc2cc(c1Cl)N(C)C(=O)C[C@H](OC(=O)[C@H](C)N(C)C(=O)CCS)C[C@]1(C)O[C@H]1[C@H](C)[C@@H]1C[C@@](O)(NC(=O)O1)[C@H](OC)/C=C/C=C(\\C)C2")
1.0
>>> label("COc1cc2c3c(n(CCCn4ccnc4)c(=O)c2cc1OC)-c1cc2c(cc1C3=O)OCO2")
0.0
>>> label("OCc1cn(Cc2ccc(Cl)cc2)c2ccccc12")
0.0

Would you kindly look at the next entry?
*Q* Assay result, entry `C/C(=N\NC(=O)c1ccc(C(C)(C)C)cc1)c1ccc(O)cc1O` — outcome?
*A* 0.0

* * *

# System: HOP-92 NSCLC
# test_method_notes: NCI tumour cell line growth inhibition, 48 h; in the data active means GI50 below about 0.43 µM; inactive means the rest
Hi there, use one of these labels in your reply, thanks! active, inactive

>>> label("COc1cc2cc(c1Cl)N(C)C(=O)C[C@H](OC(=O)[C@H](C)N(C)C(=O)CCS)C[C@]1(C)O[C@H]1[C@H](C)[C@@H]1C[C@@](O)(NC(=O)O1)[C@H](OC)/C=C/C=C(\\C)C2")
"active"
>>> label("Cc1ccc(/C=C2\\COc3ccc(O)c(O)c3C2=O)cc1")
"inactive"
>>> label("COc1cc2c(cc1OC)[C@@H]1C(=O)c3cc4c(cc3[C@@H]1N(CCN(C)C)C2=O)OCO4")
"active"
>>> label("COc1ccc2c(NCCCCCCCCNc3c4ccccc4nc4cc(OC)ccc34)c3ccccc3nc2c1")
"inactive"
>>> label("C/C(=N\\NC(=O)c1ccc(C(C)(C)C)cc1)c1ccc(O)cc1O")
"inactive"
>>> label("CCOC(=O)C1=C(C)N=C2SC=C(c3ccccc3)N2[C@H]1c1cn[nH]c1-c1ccc(Cl)cc1")
"inactive"
>>> label("COc1ccc(-c2nn(C(=O)NCCN(C)C)cc2-c2ccncc2)cc1Cl")
"inactive"
>>> label("CCC(=O)O[C@@H]([C@H](C)[C@H]1OC(CC)=C(C)C(=O)[C@@H]1C)[C@@H](C)C(=O)CC")
"inactive"

Now take the following molecule into account.
*Q* Assay result, entry `c1ccc2nc3c(cc2c1)Sc1cc2ccccc2[n+]2c1N3CC2` — outcome?
*A* inactive
